molecular target: RIPK1 (recombinant GST-RIPK1 kinase domain, residues 1-327) (Homo sapiens (Human)); assay: RIPK1-ADP-Glo Enzymatic Assay; format: biochemical; details: ADP-Glo; 25 nM GST-RIPK1, 300 μM ATP; assay lower limit ~25 nM; read-out: RIPK1 V0 Ec50
Sequence (Q13546 1-327): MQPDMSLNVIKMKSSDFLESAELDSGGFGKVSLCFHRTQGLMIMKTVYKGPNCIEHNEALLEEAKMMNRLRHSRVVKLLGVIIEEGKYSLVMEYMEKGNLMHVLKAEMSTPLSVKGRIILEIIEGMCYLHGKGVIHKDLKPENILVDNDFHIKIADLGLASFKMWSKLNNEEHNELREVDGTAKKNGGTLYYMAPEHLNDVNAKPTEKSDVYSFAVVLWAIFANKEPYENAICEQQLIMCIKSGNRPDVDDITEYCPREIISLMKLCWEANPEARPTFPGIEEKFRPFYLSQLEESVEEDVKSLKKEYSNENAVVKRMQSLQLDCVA
Catalogue of EC50 readings, one per entry.

Reference set (2 entries):
1. O=C1N2[C@@H](CC[C@H]2c2ccccc2)OC12CCN(c1ccc(Cl)c3ccnn13)CC2 < 25 nM
2. O=C1N2[C@@H](CC[C@H]2c2cc(F)cc(F)c2)OC12CCN(c1ccnc3ccnn13)CC2 < 25 nM

Let us examine a further case.
Qu. Fill in: EC50 of O=C1N2[C@@H](CC[C@H]2c2cc(F)cc(F)c2)OC12CCN(c1cc(-c3cnn(C(F)F)c3)ncn1)CC2 is ___
Ans. < 25 nM
